From: ChEMBL document CHEMBL1151760

biological target: GHB high-affinity binding site (Rattus norvegicus); experiment: Displacement of [3H]NCS-382 from GHB high-affinity binding site in rat brain homogenate
pKi values, listed per item

Examples with their reported pKi follow.
COc1ccc(/C=C/c2ccc(C(O)CCC(=O)[O-])cc2)cc1.[Li+] (centres undefined): 6.75
O=C([O-])CCC(O)c1ccc(OCc2ccccc2Br)cc1.[Li+] (racemic): 7.28
O=C([O-])CCC(O)c1ccc(Cc2ccccc2)cc1.[Li+] (racemic): 6.94

Q: # input compound: O=C([O-])CCC(O)c1ccc(-c2ccccc2)cc1.[Li+] (racemic) ; wanted: its pKi
Ans: 6.36

Q: # input compound: O=C(O)CCC(=O)c1ccc(Br)cc1 ; wanted: its pKi
Ans: 4.61

Q: # input compound: O=C([O-])CCC(O)c1ccc(OCc2cccc(F)c2)cc1.[Li+] (racemic) ; wanted: its pKi
Ans: 7.22

Q: # input compound: O=C([O-])CCC(O)c1ccc(/C=C/c2ccccc2)cc1.[Li+] (centres undefined) ; wanted: its pKi
Ans: 6.79

Q: # input compound: O=C([O-])CCC(O)c1ccc(OCc2ccccc2F)cc1.[Li+] (racemic) ; wanted: its pKi
Ans: 7.39

Q: # input compound: O=C([O-])CCC(O)c1ccc(CCc2ccccc2)cc1.[Li+] (racemic) ; wanted: its pKi
Ans: 7.13

Q: # input compound: O=C([O-])CCC(O)c1ccc(Br)cc1.[Li+] (racemic) ; wanted: its pKi
Ans: 5.96

---

molecular target: GHB high-affinity binding site (Rattus norvegicus); assay: Displacement of [3H]NCS-382 from GHB high-affinity binding site in rat brain homogenate
pKi: −log10 of the molar value.
Values of pKi greater than or equal to 6 map to TRUE; values below map to FALSE.

Example cases with answers are listed next.
O=C(O)CCC(=O)c1ccc(Cc2ccccc2)cc1: FALSE
O=C([O-])CCC(O)c1ccc(OCc2ccc(F)cc2)cc1.[Li+] (racemic): TRUE

From here, focus on the item given below.
Q: # check: pKi of O=C([O-])CCC(O)c1ccc(OCc2ccc(I)cc2)cc1.[Li+] (racemic) is greater than or equal to 6
Ans: TRUE

---

pKi values, listed per item
target: GHB high-affinity binding site (Rattus norvegicus); assay: Displacement of [3H]NCS-382 from GHB high-affinity binding site in rat brain homogenate
Please reply with the number alone, leaving off any unit.

Examples with their reported pKi follow.
O=C([O-])CCC(O)c1ccc(OCc2ccccc2I)cc1.[Li+] (racemic): 7.22
O=C([O-])CCC(O)c1ccc(OCc2cccs2)cc1.[Li+] (racemic): 7.03
O=C([O-])CCC(O)c1ccc(/C=C/c2ccccn2)cc1.[Li+] (centres undefined): 6.67
O=C(O)CCC(=O)c1ccc(Cc2ccccc2)cc1: 4.83
O=C([O-])CCC(O)c1ccc(/C=C/c2ccccc2Cl)cc1.[Li+] (centres undefined): 7.28
O=C([O-])CCC(O)c1ccc(OCc2ccccc2)cc1.[Li+] (racemic): 6.96
O=C([O-])CC[C@@H](O)c1ccc(OCc2ccccc2I)cc1.[Li+] (racemic): 7.68
O=C(O)CCC(O)c1ccc(OCc2cccc(Br)c2)cc1 (racemic): 7.32

Q: # input compound: O=C([O-])CC[C@H](O)c1ccc(OCc2ccccc2I)cc1.[Li+] ; wanted: its pKi
Ans: 6.66
